Values from ChEMBL document CHEMBL5034040

# ASSAY_INFO: Permeability of the compound in PBS at pH 7.4 after 16 hrs by PAMPA
# Format: ADME
# CONDITION_CONTEXT: read-out: Peff
ENDPOINT: Papp at 16 h
The reply must contain the numeric value and, after it, the unit.

// Input: Cc1ncsc1-c1ccc(CNC(=O)[C@@H]2C[C@@H](O)CN2C(=O)[C@@H](NC(=O)COCCOCCOCCNC(=O)C[C@@H]2N=C(c3ccc(Cl)cc3)c3c(sc(C)c3C)-n3c(C)nnc32)C(C)(C)C)cc1 . Output its Papp at 16 h only. 0.01 ×10⁻⁶ cm/s

Others:
// Input: Cc1ncsc1-c1ccc([C@H](C)NC(=O)[C@@H]2C[C@@H](O)CN2C(=O)[C@@H](NC(=O)COCCCOCCNC(=O)C[C@@H]2N=C(c3ccc(Cl)cc3)c3c(sc(C)c3C)-n3c(C)nnc32)C(C)(C)C)cc1 . Output its Papp at 16 h only. 0.2 ×10⁻⁶ cm/s
